All values here come from patent US20120251547A1.

In this section we review reported normalized MFI values for a set of binders.
MEASUREMENT TARGET: T1, huIL-17RA-FLAG-polyHis (human, UniProt Q96F46 33-320)
T1 construct: also called IL-17RA-FLAG-pHis; wild-type IL-17RA
ASSAY PROCEDURE: binning; IL-17RA held by bead mAb F
// return a plain number; no unit text

Answered cases to consult:
| BINDER | normalized MFI |
| --- | --- |
| AMH7/AML7 (antibody, IgG2, V domains shown, human mAb from IgG2 XenoMouse mice; also called AM-7; antibody D) VH: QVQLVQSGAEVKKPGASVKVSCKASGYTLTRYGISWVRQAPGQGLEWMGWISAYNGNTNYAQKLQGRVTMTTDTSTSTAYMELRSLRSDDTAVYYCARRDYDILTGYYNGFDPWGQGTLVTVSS VL: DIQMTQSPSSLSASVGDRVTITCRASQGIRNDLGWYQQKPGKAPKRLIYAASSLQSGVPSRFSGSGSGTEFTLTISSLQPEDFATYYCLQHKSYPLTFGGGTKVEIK | 269 |
| AMH21/AML21 (antibody, IgG2, V domains shown, human mAb from IgG2 XenoMouse mice; also called AM-21; antibody Q) VH: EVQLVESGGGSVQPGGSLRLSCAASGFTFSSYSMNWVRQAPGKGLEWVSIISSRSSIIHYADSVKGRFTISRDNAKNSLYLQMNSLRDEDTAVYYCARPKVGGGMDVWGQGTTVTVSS VL: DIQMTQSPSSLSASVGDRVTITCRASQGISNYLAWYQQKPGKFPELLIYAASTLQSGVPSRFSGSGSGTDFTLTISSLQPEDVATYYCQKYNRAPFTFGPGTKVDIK | 2200 |
| AMH20/AML20 (antibody, IgG2, V domains shown, human mAb from IgG2 XenoMouse mice; also called AM-20; antibody R) VH: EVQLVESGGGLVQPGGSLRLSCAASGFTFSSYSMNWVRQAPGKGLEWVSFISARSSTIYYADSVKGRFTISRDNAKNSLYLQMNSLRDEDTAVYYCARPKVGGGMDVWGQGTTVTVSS VL: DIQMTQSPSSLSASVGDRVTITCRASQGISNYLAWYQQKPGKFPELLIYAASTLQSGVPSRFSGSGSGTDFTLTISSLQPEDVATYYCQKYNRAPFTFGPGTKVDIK | 1240 |
| AMH12/AML12 (antibody, IgG2, V domains shown, human mAb from IgG2 XenoMouse mice; also called AM-12; antibody M) VH: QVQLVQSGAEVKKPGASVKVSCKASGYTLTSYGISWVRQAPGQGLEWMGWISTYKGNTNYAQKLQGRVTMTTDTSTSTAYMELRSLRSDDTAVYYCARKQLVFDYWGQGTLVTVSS VL: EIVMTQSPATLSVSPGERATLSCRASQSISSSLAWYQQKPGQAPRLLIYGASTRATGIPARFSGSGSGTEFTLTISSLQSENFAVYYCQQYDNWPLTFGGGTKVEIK | 1410 |
| AMH16/AML16 (antibody, IgG2, V domains shown, human mAb from IgG2 XenoMouse mice; also called AM-16; antibody O) VH: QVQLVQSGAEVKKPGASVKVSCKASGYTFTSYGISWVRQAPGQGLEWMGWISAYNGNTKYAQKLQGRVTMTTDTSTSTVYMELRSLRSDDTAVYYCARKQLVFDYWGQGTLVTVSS VL: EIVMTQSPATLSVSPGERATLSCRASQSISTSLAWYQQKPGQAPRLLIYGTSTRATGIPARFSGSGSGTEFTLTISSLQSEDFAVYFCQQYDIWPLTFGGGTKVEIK | 2220 |
| AMH6/AML6 (antibody, IgG2, V domains shown, human mAb from IgG2 XenoMouse mice; also called AM-6; antibody E) VH: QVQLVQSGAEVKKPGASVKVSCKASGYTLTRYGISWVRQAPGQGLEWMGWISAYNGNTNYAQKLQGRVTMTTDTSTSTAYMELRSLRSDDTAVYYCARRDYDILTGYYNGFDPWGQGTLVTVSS VL: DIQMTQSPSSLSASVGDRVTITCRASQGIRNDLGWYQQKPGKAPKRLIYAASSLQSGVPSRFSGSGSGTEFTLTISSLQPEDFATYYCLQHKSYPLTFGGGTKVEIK | 152 |
| AMH8/AML8 (antibody, IgG2, V domains shown, human mAb from IgG2 XenoMouse mice; also called AM-8; antibody C) VH: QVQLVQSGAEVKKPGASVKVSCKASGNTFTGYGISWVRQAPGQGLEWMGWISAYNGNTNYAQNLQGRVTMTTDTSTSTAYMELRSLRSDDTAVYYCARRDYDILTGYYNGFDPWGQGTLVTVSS VL: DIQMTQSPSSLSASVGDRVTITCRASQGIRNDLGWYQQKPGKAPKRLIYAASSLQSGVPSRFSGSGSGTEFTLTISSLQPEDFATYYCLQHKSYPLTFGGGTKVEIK | 239 |
| AMH11/AML11 (antibody, IgG2, V domains shown, human mAb from IgG2 XenoMouse mice; also called AM-11; antibody A) VH: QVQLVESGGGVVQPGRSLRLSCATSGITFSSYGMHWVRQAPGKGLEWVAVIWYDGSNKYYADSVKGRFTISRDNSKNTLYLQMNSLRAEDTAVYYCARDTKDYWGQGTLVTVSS VL: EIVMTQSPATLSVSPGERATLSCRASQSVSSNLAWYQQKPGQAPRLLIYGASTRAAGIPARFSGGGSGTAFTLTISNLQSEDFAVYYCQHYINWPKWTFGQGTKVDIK | 345 |

Give normalized MFI for the following binder: AMH10/AML10 (antibody, IgG2, V domains shown, human mAb from IgG2 XenoMouse mice; also called AM-10; antibody F) VH: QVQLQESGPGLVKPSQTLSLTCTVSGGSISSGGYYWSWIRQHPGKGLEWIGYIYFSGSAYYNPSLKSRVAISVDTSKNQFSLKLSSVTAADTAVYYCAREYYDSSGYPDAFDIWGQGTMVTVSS VL: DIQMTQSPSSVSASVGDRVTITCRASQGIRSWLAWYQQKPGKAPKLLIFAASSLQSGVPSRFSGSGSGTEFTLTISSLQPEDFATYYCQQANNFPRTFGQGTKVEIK 187
